Catalogue of IC50 readings, one per entry.
- measurementTarget: ALPK1 (Homo sapiens (Human), UniProt Q96QP1)
- Sequence (Q96QP1 whole entry): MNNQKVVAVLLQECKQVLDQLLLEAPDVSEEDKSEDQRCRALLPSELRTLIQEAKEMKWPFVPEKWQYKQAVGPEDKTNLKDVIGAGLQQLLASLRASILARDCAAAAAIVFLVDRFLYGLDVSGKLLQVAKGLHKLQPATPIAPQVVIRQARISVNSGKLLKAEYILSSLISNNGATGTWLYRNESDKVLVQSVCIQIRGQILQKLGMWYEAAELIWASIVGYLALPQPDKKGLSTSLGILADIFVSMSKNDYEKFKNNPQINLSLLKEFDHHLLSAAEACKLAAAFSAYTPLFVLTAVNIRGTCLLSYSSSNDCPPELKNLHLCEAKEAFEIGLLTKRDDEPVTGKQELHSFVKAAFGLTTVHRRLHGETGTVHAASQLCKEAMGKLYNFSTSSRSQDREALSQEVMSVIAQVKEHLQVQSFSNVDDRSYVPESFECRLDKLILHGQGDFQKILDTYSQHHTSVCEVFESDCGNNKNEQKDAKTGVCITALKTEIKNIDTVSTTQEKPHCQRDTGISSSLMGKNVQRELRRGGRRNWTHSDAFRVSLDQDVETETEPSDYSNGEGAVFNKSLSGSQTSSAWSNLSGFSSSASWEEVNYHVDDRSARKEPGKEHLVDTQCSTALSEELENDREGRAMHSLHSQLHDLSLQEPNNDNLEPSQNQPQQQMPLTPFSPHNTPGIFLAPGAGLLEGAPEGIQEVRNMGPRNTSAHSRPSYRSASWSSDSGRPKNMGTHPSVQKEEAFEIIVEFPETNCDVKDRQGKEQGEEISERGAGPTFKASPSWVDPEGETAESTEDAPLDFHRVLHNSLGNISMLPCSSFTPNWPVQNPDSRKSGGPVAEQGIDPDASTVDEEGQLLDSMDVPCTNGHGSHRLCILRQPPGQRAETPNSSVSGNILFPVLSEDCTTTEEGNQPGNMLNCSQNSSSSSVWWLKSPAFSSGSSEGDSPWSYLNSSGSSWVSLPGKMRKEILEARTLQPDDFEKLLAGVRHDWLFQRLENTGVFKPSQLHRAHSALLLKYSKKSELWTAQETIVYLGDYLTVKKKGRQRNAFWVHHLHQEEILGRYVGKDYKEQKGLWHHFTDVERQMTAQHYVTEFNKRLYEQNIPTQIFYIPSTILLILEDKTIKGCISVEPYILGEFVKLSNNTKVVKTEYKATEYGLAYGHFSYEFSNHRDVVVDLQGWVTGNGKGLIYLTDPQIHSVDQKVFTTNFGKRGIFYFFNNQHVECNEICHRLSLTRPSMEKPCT
- assayText: ALPK1 in vitro kinase assay (HTRF of TIFA phosphorylation)
- Type: biochemical
- From the text: In embodiments, a compound of Formula I, or a subembodiment described herein, is an inhibitor of ALPK1 as measured, for example, in an in vitro kinase assay, or an assay designed to measure the activation of downstream targets of ALPK1 pathway activation, for example NFkB transcriptional activation and the secretion of proinflammatory cytokines and chemokines, such as IL-8, which is also referred to as CXCL-8. […]
Enter your answer as a number in nM; do not include the unit.

Example results:
CC1CN(c2ccc(CNC(=O)Nc3nc(C(C)(C)c4ccc(Br)cc4)cs3)cc2)CC(C)N1 (centres unmarked) :: 9
CC(C)(c1ccc(C2CC2)cc1)c1csc(NC(=O)NCc2ccc(N3CCNCC3)cc2)n1 :: 334
COc1ccc(C(C)(C)c2csc(NC(=O)NCc3cnc(N4CCN(CCO)CC4)c(F)c3)n2)cc1 :: 61
C#CC(C)(c1ccc(Br)cc1)c1csc(NC(N)=O)n1 (stereo in doubt) [Example A163] :: 4
Cc1nc(CNC(=O)Nc2nc(C(C)(C)c3ccc(Br)cc3)cs2)cc(N2CCNCC2)n1 :: 32
C#CC(C)(c1ccc(Br)cc1)c1csc(NC(=O)NCCCO)n1 (centres unmarked) :: 21
C#CC(C)(c1ccc(Cl)cc1)c1csc(NC(=O)N2CCC(O)CC2)n1 (centres unmarked) :: 2060

Pending compound:
Reported IC50 ( C#CC(C)(c1ccc(Cl)cc1)c1nc(NC(=O)NCCO)sc1F (centres unmarked) ) = 222

---

Parameter IC50: see the listing below.
- measurementTarget: ALPK1 (Homo sapiens (Human), UniProt Q96QP1)
- assayText: ALPK1 in vitro kinase assay (HTRF of TIFA phosphorylation)
- Format: biochemical
- experimentalConditions: ALPK1 2 nM, TIFA substrate, ADP-Heptose activator, HTRF readout

C#C[C@@](C)(c1ccc(F)cc1)c1csc(NC(=O)c2ccc(N3CCNCC3CO)cc2)n1 (stereo in doubt) [Example B071] :: 0.06 µM

Looking up C#C[C@](C)(c1ccc(Cl)cc1)c1csc(NC(=O)c2c(F)cc(N3CCNCC3CO)cc2F)n1 (stereo in doubt) , I see its IC50 listed as 0.02 µM

Quick note, IC50 for C#Cc1ccc(C(C)(C#C)c2csc(NC(=O)c3c(F)cc(N4CCNCC4)cc3F)n2)cc1 (stereo not shown) landed at 0.101 µM

C#CC(C)(c1ccc(Cl)cc1)c1csc(NC(=O)c2ccc(N3CCNCC3)cc2F)n1 (stereo not shown) [Example B094] has a reported IC50 of 0.151 µM

---

- measurementTarget: ALPK1 (Homo sapiens (Human))
- assayText: ALPK1 in vitro kinase assay (HTRF of TIFA phosphorylation)
- Type: biochemical
- Description: In embodiments, a compound of Formula I, or a subembodiment described herein, is an inhibitor of ALPK1 as measured, for example, in an in vitro kinase assay, or an assay designed to measure the activation of downstream targets of ALPK1 pathway activation, for example NFkB transcriptional activation and the secretion of proinflammatory cytokines and chemokines, such as IL-8, which is also referred to as CXCL-8. […]
outcomeMeasure: pIC50
To interpret pIC50, take it as minus log10 of a concentration measured in moles per litre.

COc1ccc(C(C)(C)c2csc(NC(=O)NCc3ccc(N4CCC(N)C4)nc3)n2)cc1 (stereo not shown) [Example A186] :: 7.72
CNC(=O)Nc1nc(C(C)(C)c2ccc(OC)cc2)cs1 :: 7.28
COc1ccc(C(C)(C)c2csc(NC(=O)NCc3ccc(C(=O)N4CCC(N)C4)nc3)n2)cc1 (stereo not shown) :: 7.25

For the next question, use this molecule.
Recorded pIC50 (molecule "CC(C)(c1ccc(Br)cc1)c1csc(NC(=O)NCc2ccc(N3CCNCC3)c(C(N)=O)c2)n1" ): 7.62

The measured values listed here are drawn from patent US20240109853A1.
